Every entry's value here was drawn from ChEMBL document CHEMBL1131083.

Target: Human immunodeficiency virus type 1 protease (Human immunodeficiency virus 1, UniProt Q72874)
pKi: −log10 of the molar value.
Parameter: pKi

>  <Compound>
CCC(C1=C(O)OC(CC(C)C)(CC(C)C)CC1=O)c1cccc(NS(=O)(=O)c2cn(C)cn2)c1 (configuration not stated)

>  <Measured Result>
8.52

$$$$

[I] CCCC1(CCc2ccccc2)CC(=O)C(C(c2cccc(NS(=O)(=O)c3ccc(C(F)(F)F)cn3)c2)C(C)(C)C)=C(O)O1 (configuration not stated)
[II] CCCC1(CCc2ccccc2)CC(=O)C(C(c2cccc(NS(=O)(=O)c3ccc(C#N)cc3)c2)C(C)(C)C)=C(O)O1 (configuration not stated)
[III] CCCC1(CCC)CC(=O)C(C(c2cccc(NS(=O)(=O)c3cn(C)cn3)c2)C(C)(C)C)=C(O)O1 (configuration not stated)
[IV] CCCC1(CCc2ccccc2)CC(=O)C(C(c2cccc(NS(=O)(=O)c3ccc(N)cn3)c2)C(C)(C)C)=C(O)O1 (configuration not stated)
Rank entries according to their pKi, from the largest number down. # list labels per requested ordering
IV, III, I, II

* * *

Molecular target: Human immunodeficiency virus type 1 protease (Human immunodeficiency virus 1, UniProt Q72874)
Experiment: Inhibitory activity against HIV-1 protease in tandem assay.
pKi: −log10 of the molar value.
Parameter: pKi

Please review the entries below; each comes with its answer.
>  <Compound>
CCCC1(CCc2ccc(F)cc2)CC(=O)C(C(CC)c2cccc(NS(=O)(=O)c3cn(C)cn3)c2)=C(O)O1 (centres undefined)

>  <Measured Result>
8.52

$$$$
>  <Compound>
CCCC1(CCc2ccccc2)CC(=O)C(C(CC)c2cccc(NS(=O)(=O)c3cn(C)cn3)c2)=C(O)O1 (centres undefined)

>  <Measured Result>
8.92

$$$$

[1] CCCC1(CCc2ccccc2)CC(=O)C(C(c2cccc(NS(=O)(=O)c3cn(C)cn3)c2)C2CC2)=C(O)O1 (centres undefined)
[2] CCCC1(CCC)CC(=O)C(C(CC)c2cccc(NS(=O)(=O)c3cn(C)cn3)c2)=C(O)O1 (centres undefined)
// pick larger pKi from pair: 1 vs 2 // respond with label for picked entry
1

* * *

Target: Human immunodeficiency virus type 1 protease (Human immunodeficiency virus 1, UniProt Q72874)
Parameter: Ki (nM)

>  <Molecule>
CCCC1(CCc2ccccc2)CC(=O)C(C(CC)c2cccc(NS(=O)(=O)c3cccc4cccnc34)c2)=C(O)O1 (centres undefined)

>  <Ki / nM>
3.1

$$$$

[A] CCCC1(CCc2ccccc2)CC(=O)C(C(c2cccc(NS(=O)(=O)c3ccc([N+](=O)[O-])cn3)c2)C(C)(C)C)=C(O)O1 (centres undefined)
[B] CCC[C@]1(CCc2ccccc2)CC(=O)C([C@H](CC)c2cccc(NS(=O)(=O)c3ccc(C#N)cn3)c2)=C(O)O1
Of the pair A and B , name the member with the lesser recorded Ki. // respond with label for picked entry
B
(B: 0.04 nM, A: 2.3 nM)

* * *

Molecular target: Human immunodeficiency virus type 1 protease (Human immunodeficiency virus 1)
Test: Inhibition of HIV-1 protease in a cell culture assay using HIV-1 IIIB infected H9 cells.
Assay type: functional, cell-based
Parameter: IC90 (µM)

>  <Compound>
CCCC1(CCC)CC(=O)C(C(c2cccc(NS(=O)(=O)c3cn(C)cn3)c2)C(C)(C)C)=C(O)O1 (configuration not stated)

>  <IC90 [µM]>
1

$$$$
>  <Compound>
CCCC1(CCc2ccccc2)CC(=O)C(C(c2cccc(NS(=O)(=O)c3ccc(C(F)(F)F)cn3)c2)C(C)(C)C)=C(O)O1 (configuration not stated)

>  <IC90 [µM]>
0.99

$$$$

[1] CCC[C@]1(CCc2ccccc2)CC(=O)C(C(CC)c2cccc(NS(=O)(=O)c3ccc(C(F)(F)F)cn3)c2)=C(O)O1 (some centres not stated)
[2] CCC(C1=C(O)OC(CCc2ccccc2)(CCc2ccccc2)CC1=O)c1cccc(NS(=O)(=O)c2cn(C)cn2)c1 (configuration not stated)
Of the pair 1 and 2 , name the member with the lesser recorded IC90. // respond with label for picked entry
1
(1: 0.84 µM, 2: 2 µM)

* * *

Test: Inhibition of HIV-1 protease in a cell culture assay using HIV-1 IIIB infected H9 cells.
pIC50: −log10 of the molar value.
Parameter: pIC50

>  <Molecule>
CCCC1(CCc2ccccc2)CC(=O)C(C(CC)c2cccc(NS(=O)(=O)c3ccc(C#N)cc3)c2)=C(O)O1 (stereo not drawn)

>  <Parameter>
pIC50

>  <Measured Result>
5.96

$$$$
>  <Molecule>
CCCC1(CCc2ccccc2)CC(=O)C(C(CC)c2cccc(NS(=O)(=O)c3cccc4cccnc34)c2)=C(O)O1 (stereo not drawn)

>  <Parameter>
pIC50

>  <Measured Result>
6.00

$$$$
>  <Molecule>
CCCC1(CCc2ccccc2)CC(=O)C(C(CC)c2cccc(NS(=O)(=O)c3ccc(F)cc3)c2)=C(O)O1 (stereo not drawn)

>  <Parameter>
pIC50

>  <Measured Result>
5.92

$$$$

* * *

Target: UniProtKB Q72874
Assay: Inhibition of HIV-1 protease in a cell culture assay using HIV-1 IIIB infected H9 cells.
Format: functional, cell-based
Parameter: IC90 (nM)

Please review the entries below; each comes with its answer.
>  <Compound>
CCC[C@]1(CCc2ccccc2)CC(=O)C([C@H](CC)c2cccc(NS(=O)(=O)c3cn(C)cn3)c2)=C(O)O1

>  <System Name>
UniProtKB Q72874

>  <Measured Result>
1000

$$$$
>  <Compound>
CCCC1(CCc2ccccc2)CC(=O)C(C(c2cccc(NS(=O)(=O)c3cn(C)cn3)c2)C2CC2)=C(O)O1 (centres undefined)

>  <System Name>
UniProtKB Q72874

>  <Measured Result>
1000

$$$$

[1] CCC(C1=C(O)OC(CCC2CC2)(CCC2CC2)CC1=O)c1cccc(NS(=O)(=O)c2cn(C)cn2)c1 (centres undefined)
[2] CCC(C1=C(O)OC(CC(C)C)(CC(C)C)CC1=O)c1cccc(NS(=O)(=O)c2cn(C)cn2)c1 (centres undefined)
Of the pair 1 and 2 , name the member with the lesser recorded IC90. // respond with label for picked entry
1
(1: 2900 nM, 2: 7400 nM)

* * *

Target: Human immunodeficiency virus type 1 protease (Human immunodeficiency virus 1, UniProt Q72874)
pKi: −log10 of the molar value.
Parameter: pKi

>  <Compound>
CCC(C1=C(O)OC(CCc2ccccc2)(CCc2ccccc2)CC1=O)c1cccc(NS(=O)(=O)c2cn(C)cn2)c1 (configuration not stated)

>  <pKi>
9.00

$$$$
>  <Compound>
CCC(C1=C(O)OC(CCC2CC2)(CCC2CC2)CC1=O)c1cccc(NS(=O)(=O)c2cn(C)cn2)c1 (configuration not stated)

>  <pKi>
8.77

$$$$
>  <Compound>
CCC[C@@]1(CCc2ccccc2)CC(O)=C([C@H](CC)c2cccc(NS(=O)(=O)c3ccc(C(F)(F)F)cn3)c2)C(=O)O1

>  <pKi>
11.10

$$$$

[P] CCC[C@]1(CCc2ccccc2)CC(=O)C(C(CC)c2cccc(NS(=O)(=O)c3ccc(C(F)(F)F)cn3)c2)=C(O)O1 (some centres not stated)
[Q] CCCC1(CCC)CC(=O)C(C(c2cccc(NS(=O)(=O)c3cn(C)cn3)c2)C2CC2)=C(O)O1 (configuration not stated)
[R] CCCC1(CCc2ccccc2)CC(=O)C(C(CC)c2cccc(NS(=O)(=O)c3ccc(C#N)cn3)c2)=C(O)O1 (configuration not stated)
Order by pKi, ascending. # list labels per requested ordering
Q, R, P

* * *

Recorded IC90 values for a group of compounds are listed next.
Target: Human immunodeficiency virus type 1 protease (Human immunodeficiency virus 1) (UniProt Q72874)
Assay: Inhibition of HIV-1 protease in a cell culture assay using HIV-1 IIIB infected H9 cells.
Type: functional, cell-based

Please review the entries below; each comes with its answer.
>  <Compound>
CCC[C@@]1(CCc2ccccc2)CC(=O)C([C@@H](CC)c2cccc(NS(=O)(=O)c3cn(C)cn3)c2)=C(O)O1

>  <Measured Result>
> 1000 nM

$$$$
>  <Compound>
CCCC1(CCc2ccccc2)CC(=O)C(C(c2cccc(NS(=O)(=O)c3ccc([N+](=O)[O-])cn3)c2)C(C)(C)C)=C(O)O1 (stereo not drawn)

>  <Measured Result>
> 3000 nM

$$$$

Now let's try a different one.
Tell me the measured IC90 of CCCCCC1(CCCCC)CC(=O)C(C(CC)c2cccc(NS(=O)(=O)c3cn(C)cn3)c2)=C(O)O1 (stereo not drawn) , please.
< 3000 nM
